biological target: HLA-B*15:01; experiment: IEDB peptide-MHC binding, purified MHC/direct/fluorescence; filed as Kd, often an IC50 or EC50 that approximates it; bounds were set here for any values at or beyond the usual limits of such assays; conditions: source organism: Yersinia enterocolitica
reportedEndpoint: Kd (nM)
Numbers only, in nM.

Indicate its recorded Kd; the sequence in question is YIFRNTINM
298

* * *

molecular target: HLA-C*12:03; experiment: IEDB peptide-MHC binding, purified MHC/direct/fluorescence; filed as Kd, often an IC50 or EC50 that approximates it; bounds were set here for any values at or beyond the usual limits of such assays; details: source organism: Mycobacterium tuberculosis variant bovis BCG str. Pasteur 1173P2
reportedEndpoint: Kd

Indicate its recorded Kd; the sequence in question is YAKFARITL
≤ 1 nM

* * *

target: HLA-B*15:17; test: IEDB peptide-MHC binding, purified MHC/direct/fluorescence; filed as Kd, often an IC50 or EC50 that approximates it; bounds were set here for any values at or beyond the usual limits of such assays; conditions: source organism: Mycobacterium tuberculosis
Task for the reader: assign each of the following sequences its reported Kd.

MPRLSRNAA | ≥ 20 µM

Indicate its recorded Kd; the sequence in question is RPPMVTSGL
≥ 20 µM

* * *

target: HLA-B*40:01; assay: IEDB peptide-MHC binding, purified MHC/competitive/radioactivity; filed as Kd, often an IC50 or EC50 that approximates it; bounds were set here for any values at or beyond the usual limits of such assays; conditions: source organism: Dengue virus 3 Martinique/1243/1999
reportedEndpoint: Kd (nM)
Give bare numbers, in nM.

Indicate its recorded Kd; the sequence in question is LETKGVERL
21.7

* * *

target: HLA-A*23:01; assay: IEDB peptide-MHC binding, purified MHC/competitive/radioactivity; filed as Kd, often an IC50 or EC50 that approximates it; bounds were set here for any values at or beyond the usual limits of such assays; conditions: source organism: Lymphocytic choriomeningitis virus (strain Armstrong)
pKd: −log10 of the molar value.
reportedEndpoint: pKd

Below: 2 sequences and their reported pKd.
VKIPTHRHI | ≤ 4.11
QYVRSGKDHV | ≤ 4.30

Indicate its recorded pKd; the sequence in question is QFIHFYREPV
≤ 4.16

* * *

molecular target: HLA-B*35:01; experiment: IEDB peptide-MHC binding, purified MHC/competitive/radioactivity; filed as Kd, often an IC50 or EC50 that approximates it; bounds were set here for any values at or beyond the usual limits of such assays; settings: source organism: Dengue virus 1 Singapore/S275/1990
reportedEndpoint: pKd
Give bare numbers, as −log10 of the molar value.

Provide pKd, tested on HLA-B*35:01, for MAMVLSIVS .
6.18

* * *

biological target: HLA-B*15:01; assay: IEDB peptide-MHC binding, purified MHC/competitive/radioactivity; filed as Kd, often an IC50 or EC50 that approximates it; bounds were set here for any values at or beyond the usual limits of such assays; conditions: source organism: Vaccinia virus WR
Task for the reader: assign each of the following sequences its reported Kd.
One number for each entry, in nM.

Below: 4 sequences and their reported Kd.
FAISYCRAF | 76.1
EIAKYGHSF | 57.6
LTYFCFVAL | 28.5
VMTKWCAPF | 1.86

Pending sequence:
Indicate its recorded Kd; the sequence in question is HLYNILNNI
1480

* * *

molecular target: HLA-A*30:02; experiment: IEDB peptide-MHC binding, purified MHC/competitive/radioactivity; filed as Kd, often an IC50 or EC50 that approximates it; bounds were set here for any values at or beyond the usual limits of such assays; conditions: source organism: SARS coronavirus Tor2
Task for the reader: assign each of the following sequences its reported Kd.
Answers are plain numbers, in nM.

Provide each entry's Kd from the list below.
1. VFSAVGNICY
2. TSSMRGVYY
3. YEDQDALFAY
4. APALQEAYY
5. YLALYNKYKY

1. 13.8
2. 124
3. 2030
4. 365
5. 34.5
